Origin of measurements: ChEMBL document CHEMBL1126650

Tested Target: Thromboxane A2 receptor (Homo sapiens) (UniProt P21731)
Sequence (whole entry): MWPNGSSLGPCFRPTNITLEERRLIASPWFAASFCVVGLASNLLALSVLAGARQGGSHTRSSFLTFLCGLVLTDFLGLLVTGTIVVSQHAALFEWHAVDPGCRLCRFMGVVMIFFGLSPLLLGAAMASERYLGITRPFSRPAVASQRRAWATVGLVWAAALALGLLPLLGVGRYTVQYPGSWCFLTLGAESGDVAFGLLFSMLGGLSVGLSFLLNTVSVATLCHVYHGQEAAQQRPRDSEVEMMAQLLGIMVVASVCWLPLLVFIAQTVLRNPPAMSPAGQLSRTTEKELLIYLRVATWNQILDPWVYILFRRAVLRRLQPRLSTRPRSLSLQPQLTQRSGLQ
Assay Details: In vitro for percent inhibition against TXA2 / PGH-2 receptor using [125I]PTA-OH in human platelets at 10 e-5 M
The label depends only on inhibition: TRUE if it is at least 90%, FALSE if it is smaller.

# Compound, Cat
records = [
    ("COc1ccc(Cn2c(CC(C)(C)CC(=O)O)nc3ccccc32)cc1", "TRUE"),
    ("CCC(C)(CC(=O)O)Cc1nc2ccccc2n1Cc1ccc(Cl)cc1 (centres undefined)", "TRUE"),
    ("CC(C)(CC(=O)O)Cc1nc2cc(F)ccc2n1Cc1ccc(Br)cc1F", "TRUE"),
    ("CC(C)(CC(=O)O)Cc1nc2cccnc2n1Cc1ccc(Cl)cc1", "FALSE"),
    ("O=C(O)[C@H]1CC[C@@H]1c1nc2cc(F)ccc2n1Cc1ccc(Cl)cc1", "TRUE"),
    ("CC(C)(CC(=O)O)Cc1nc2ccccc2n1Cc1ccc(Cl)cc1", "TRUE"),
    ("CC(C)(CC(=O)O)Cc1nc2cc(Br)ccc2n1Cc1ccc(Cl)cc1", "FALSE"),
    ("O=C(O)CCCSc1nc2cc(F)ccc2n1Cc1ccc(Cl)cc1", "TRUE"),
    ("CC(C)(CC#N)Cc1nc2ccccc2n1Cc1ccc(Cl)cc1", "FALSE"),
    ("CC(C)(CC(=O)O)Cc1nc2cc(Cl)c(Cl)cc2n1Cc1ccc(Cl)cc1", "TRUE"),
    ("O=C(O)CC1(Cc2nc3cc(F)ccc3n2Cc2ccc(Cl)cc2)CCCC1", "TRUE"),
    ("CC(C)(CCC(=O)O)Cc1nc2cc(F)ccc2n1Cc1ccc(Cl)cc1", "FALSE"),
]

###

Recorded inhibition, one value per entry.
Tested Target: Thromboxane A2 receptor (Homo sapiens)
Assay Details: In vitro for percent inhibition against TXA2 / PGH-2 receptor using [125I]PTA-OH in human platelets at 10 e-5 M

# Compound, Tested Target, Unit Tag, inhibition
data = [
    ("CC(C)(CC(=O)O)Cc1nc2ccccc2n1Cc1ccccc1", "Thromboxane A2 receptor (Homo sapiens)", "%", 95),
    ("O=C(O)[C@@H]1CC=CC[C@@H]1c1nc2cc(F)ccc2n1Cc1ccc(Cl)cc1", "Thromboxane A2 receptor (Homo sapiens)", "%", 96),
    ("O=C(O)CCc1nc2cc(F)ccc2n1Cc1ccc(Cl)cc1", "Thromboxane A2 receptor (Homo sapiens)", "%", 64),
    ("O=C(O)CCCSc1nc2cc(Cl)cnc2n1Cc1ccc(Cl)cc1", "Thromboxane A2 receptor (Homo sapiens)", "%", 39),
    ("CC(C)(CC(=O)O)Cc1nc2cc(Cl)ccc2n1Cc1ccc(Cl)cc1F", "Thromboxane A2 receptor (Homo sapiens)", "%", 87),
    ("Cc1ccc(Cn2c(CC(C)(C)CC(=O)O)nc3ccccc32)cc1", "Thromboxane A2 receptor (Homo sapiens)", "%", 100),
    ("CC(C)(CC(=O)O)Cc1nc2cc(F)ccc2n1Cc1ccc(Cl)cc1F", "Thromboxane A2 receptor (Homo sapiens)", "%", 77),
    ("CC(Sc1nc2cc(F)ccc2n1Cc1ccc(Cl)cc1)C(=O)O (configuration not stated)", "Thromboxane A2 receptor (Homo sapiens)", "%", 83),
    ("CC(C)(CC(=O)O)Cc1nc2cc(F)ccc2n1Cc1ccc(Br)cc1", "Thromboxane A2 receptor (Homo sapiens)", "%", 95),
    ("COc1ccc(Cn2c(CC(C)(C)CC(=O)O)nc3cc(F)ccc32)cc1", "Thromboxane A2 receptor (Homo sapiens)", "%", 100),
    ("CC(C)(CC(=O)O)Cc1nc2cc(F)ccc2n1Cc1ccc(Cl)c(Cl)c1", "Thromboxane A2 receptor (Homo sapiens)", "%", 92),
    ("O=C(O)CC1CCCc2c1n(Cc1ccc(Cl)cc1)c1ccc(F)cc21 (configuration not stated)", "Thromboxane A2 receptor (Homo sapiens)", "%", 100),
    ("COc1ccc(Cn2c(CC(C)(C)CC(=O)O)nc3cc(Cl)ccc32)cc1", "Thromboxane A2 receptor (Homo sapiens)", "%", 100),
    ("CC(C)(CC(N)=O)Cc1nc2ccccc2n1Cc1ccc(Cl)cc1", "Thromboxane A2 receptor (Homo sapiens)", "%", 90),
    ("COc1ccc2c(c1)nc(CC(C)(C)CC(=O)O)n2Cc1ccc(Cl)cc1", "Thromboxane A2 receptor (Homo sapiens)", "%", 100),
    ("O=C(O)COc1ccc(CCNS(=O)(=O)c2ccccc2)cc1", "Thromboxane A2 receptor (Homo sapiens)", "%", 95),
    ("CC(C)(Sc1nc2cc(Cl)cnc2n1Cc1ccc(Cl)cc1)C(=O)O", "Thromboxane A2 receptor (Homo sapiens)", "%", 100),
    ("CC(C)(CC(=O)O)Cc1nc2ccccc2n1Cc1ccc([N+](=O)[O-])cc1", "Thromboxane A2 receptor (Homo sapiens)", "%", 100),
    ("O=C(O)CC(Cc1nc2ccccc2n1Cc1ccc(Cl)cc1)c1ccccc1 (configuration not stated)", "Thromboxane A2 receptor (Homo sapiens)", "%", 17),
    ("O=C(O)CCCCSc1nc2cc(F)ccc2n1Cc1ccc(Cl)cc1", "Thromboxane A2 receptor (Homo sapiens)", "%", 100),
    ("CC(C)(CC(=O)O)Cc1nc2cc(Cl)ccc2n1Cc1ccc(Cl)cc1", "Thromboxane A2 receptor (Homo sapiens)", "%", 99),
    ("CC(C)(CC(=O)O)Cc1nc2cc(Cl)ccc2n1Cc1ccc(Br)cc1F", "Thromboxane A2 receptor (Homo sapiens)", "%", 95),
]

###

Tested Target: Thromboxane A2 receptor (Homo sapiens)
Assay Details: In vitro for percent inhibition against TXA2 / PGH-2 receptor using [125I]PTA-OH in human platelets at 10 e-5 M

# Molecule, Unit Tag, inhibition
rows = [
    ("CC(CC(=O)O)Cc1nc2ccccc2n1Cc1ccc(Cl)cc1 (stereo unspecified)", "%", 100),
    ("CC(C)(CC(=O)O)Cc1nc2cc(Cl)cnc2n1Cc1ccc(Cl)cc1", "%", 100),
    ("CCC(CC)(CC(=O)O)Cc1nc2ccccc2n1Cc1ccc(Cl)cc1", "%", 97),
    ("CC(C)(CC(=O)O)Cc1nc2ccccc2n1Cc1ccc(F)cc1", "%", 100),
    ("O=C(O)CCCSc1nc2cc(Cl)cnc2n1Cc1ccc(Br)cc1F", "%", 60),
    ("O=C(O)CC1(Cc2nc3cc(F)ccc3n2Cc2ccc(Cl)cc2)CCCCC1", "%", 98),
    ("CC(C)(CC(=O)O)Cc1nc2ccccc2n1Cc1ccc(O)cc1", "%", 96),
    ("O=C(O)CC1(Cc2nc3cc(F)ccc3n2Cc2ccc(Cl)cc2)CC1", "%", 98),
    ("CC(C)(Sc1nc2cc(F)ccc2n1Cc1ccc(Cl)cc1)C(=O)O", "%", 83),
    ("CC(C)(CC(=O)O)Cc1nc2cc(F)ccc2n1Cc1ccc(Cl)cc1", "%", 100),
    ("O=C(O)[C@H]1CCC[C@@H]1c1nc2cc(F)ccc2n1Cc1ccc(Cl)cc1", "%", 100),
]

###

Target protein (sequence): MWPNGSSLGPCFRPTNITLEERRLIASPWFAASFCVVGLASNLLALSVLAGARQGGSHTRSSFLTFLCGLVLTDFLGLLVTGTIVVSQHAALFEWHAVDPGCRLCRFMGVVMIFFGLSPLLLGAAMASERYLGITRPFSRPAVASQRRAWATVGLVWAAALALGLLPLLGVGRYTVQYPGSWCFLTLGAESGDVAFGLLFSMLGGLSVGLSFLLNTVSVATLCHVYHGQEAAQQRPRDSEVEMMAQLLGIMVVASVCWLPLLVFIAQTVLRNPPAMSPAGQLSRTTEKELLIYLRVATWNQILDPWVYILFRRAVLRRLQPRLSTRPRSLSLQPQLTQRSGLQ
pKi: −log10 of the molar value.
Endpoint Label: pKi

# Smiles, Meas Value
records = [
    ("CC(C)(CC(=O)O)Cc1nc2cc(F)ccc2n1Cc1ccc(Br)cc1", 7.92),
    ("O=C(O)CCc1nc2cc(F)ccc2n1Cc1ccc(Cl)cc1", 5.25),
    ("CC(C)(CC(=O)O)Cc1nc2ccccc2n1Cc1ccc(Br)cc1", 7.80),
    ("CC(C)(CCC(=O)O)Cc1nc2cc(F)ccc2n1Cc1ccc(Cl)cc1", 7.64),
    ("COc1ccc(Cn2c(CC(C)(C)CC(=O)O)nc3cc(F)ccc32)cc1", 8.40),
    ("O=C(O)[C@H]1CCC[C@@H]1c1nc2cc(F)ccc2n1Cc1ccc(Cl)cc1", 6.85),
    ("CC(C)(Cc1nc2cc(F)ccc2n1Cc1ccc(Cl)cc1)C(=O)O", 5.77),
    ("O=C(O)CC1(Cc2nc3cc(F)ccc3n2Cc2ccc(Cl)cc2)CCCCC1", 6.06),
]
